Data credit: patent US6117866A

- System: human platelets
- Experiment: Inhibition of Platelet Aggregation (human platelets stimulated with ADP)
- Format: cell-based
- Condition label: in vitro
Result type: IC50

// below: answered compounds
[
  {
    "Compound": "CN1Cc2cc(C(=O)N3CCC(C4CCNCC4)CC3)ccc2N[C@H](CC(=O)O)C1=O",
    "IC50": "0.2 to 11 µM"
  },
  {
    "Compound": "O=C(O)CC1Nc2cc(C(=O)Nc3ccc4c(c3)CNCC4)ccc2CN(CCc2ccccc2)C1=O (racemic)",
    "IC50": "~75 µM"
  },
  {
    "Compound": "CN(CCC1CCNCC1)C(=O)c1ccc2c(c1)CC(CCC(=O)O)C(=O)N(CCc1ccccc1)C2 (racemic)",
    "IC50": "0.2 to 11 µM"
  },
  {
    "Compound": "O=C(O)CC1Nc2ccc(C(=O)N3CCC(C4CCNCC4)CC3)cc2CN(CCc2ccccc2)C1=O (single isomer, unassigned; (+))",
    "IC50": "0.2 to 11 µM"
  }
]

Shifting focus to the compound that follows.
Per the records, this compound ( O=C(O)CC1Nc2ccc(C(=O)Nc3ccc4c(c3)CNCC4)cc2CN(CCc2ccccc2)C1=O (racemic) ) has IC50 equal to 0.2 to 11 µM
